# Species: Rattus norvegicus
# assay-name: In vitro inhibitory concentration required to relax KCl-induced contractions in rat bladder detrusor muscle strips
# Assay type: functional
# conditions: Rattus norvegicus; read-out: IC50
value-kind: pIC50
Scale: pIC50 equals -log10([C]), with [C] in mol/L.

Return pIC50 (reported value) for this molecule: C[C@@H](Nc1c(Nc2ccc(C#N)cc2)c(=O)c1=O)C(C)(C)C
6.43

Return pIC50 (reported value) for this molecule: CC(Nc1c(/C=C/c2ccc(C#N)cc2)c(=O)c1=O)C(C)(C)C (stereo unspecified)
5.53

Return pIC50 (reported value) for this molecule: CCC(C)(C)/N=c1/c(-c2ccc(OC)cc2)c(O)c1=O
5.60

---

# Organism: Rattus norvegicus
# assay-name: In vitro inhibitory concentration required to relax KCl-induced contractions in rat bladder detrusor muscle strips
# Format: functional
# conditions: Rattus norvegicus; read-out: IC50
Hi there, I'd appreciate the recorded pIC50 for every entry that follows.
Scale: pIC50 equals -log10([C]), with [C] in mol/L.

Return pIC50 (reported value) for this compound: COc1ccc(-c2c(NC(C)c3ccccc3)c(=O)c2=O)cc1 (centres undefined)
4.57

Return pIC50 (reported value) for this compound: CC(=O)C(c1ccc(C(F)(F)F)cc1)c1c(NC(C)C(C)(C)C)c(=O)c1=O (centres undefined)
4.79

Return pIC50 (reported value) for this compound: COc1ccc(-c2c(N(C)C(C)C)c(=O)c2=O)cc1
4.92

Return pIC50 (reported value) for this compound: CCc1cc(C#N)ccc1Nc1c(N[C@H](C)C(C)(C)C)c(=O)c1=O
7.05

---

# Organism: Rattus norvegicus
# assay-name: In vitro inhibitory concentration required to relax KCl-induced contractions in rat aortic rings
# Type: functional
# conditions: Aorta
Hi there, I'd appreciate the recorded IC50 for every entry that follows.
Report the figure in µM without appending any unit label.

Return IC50 (reported value) for this compound: COc1ccc(-c2c(N(C)C(C)C)c(=O)c2=O)cc1
46.2

Return IC50 (reported value) for this compound: CCC(C)(C)/N=c1/c(-c2ccc(OC)cc2)c(O)c1=O
37.6

Return IC50 (reported value) for this compound: C[C@@H](Nc1c(Nc2ccc(C#N)cc2)c(=O)c1=O)C(C)(C)C
0.064

Return IC50 (reported value) for this compound: CCc1cc(C#N)ccc1Nc1c(N[C@H](C)C(C)(C)C)c(=O)c1=O
0.017

---

# Organism: Rattus norvegicus
# assay-name: In vitro inhibitory concentration required to relax KCl-induced contractions in rat bladder detrusor muscle strips
# Assay type: functional
# conditions: Rattus norvegicus; read-out: IC50
Hi there, I'd appreciate the recorded IC50 for every entry that follows.

Return IC50 (reported value) for this molecule: COc1ccc(-c2c(NCC(C)c3ccccc3)c(=O)c2=O)cc1 (stereo not drawn)
> 30 µM

Return IC50 (reported value) for this molecule: COc1ccc(Cc2c(NC(C)C(C)(C)C)c(=O)c2=O)cc1 (stereo not drawn)
> 30 µM

Return IC50 (reported value) for this molecule: CCC(C)(C)/N=c1/c(-c2cccc(OC)c2)c(O)c1=O
> 30 µM
